# System: Saccharomyces cerevisiae
# method-notes: protein stability index of tFT-peptide fusion (C-terminal peptide) (PSI (0-1 scale)); higher = more stable (slower turnover)
# details: genetic background: wild type; temperature: 30 C
protein stability index reference

chain-sequence: GAGLLRLWEVGG
protein stability index: 0.733
//
chain-sequence: LLPFSLLDLLLC
protein stability index: 0.488
//
chain-sequence: VLGPFKKSIQVL
protein stability index: 0.522
//
chain-sequence: CIIIIGRHSIWG
protein stability index: 0.672
//
chain-sequence: AAIPPPLHTWRY
protein stability index: 0.722
//
chain-sequence: NRQNYAEDLKSC
protein stability index: 0.683
//
chain-sequence: NKSTAEVKMEIR
protein stability index: 0.686
//
chain-sequence: LLCLVSCFGCWL
protein stability index: 0.585
//
chain-sequence: RNKKDIKIQIKR
protein stability index: 0.68
//
chain-sequence: HPRRLRPAHTPP
protein stability index: 0.725
//
chain-sequence: PPRRLPALPSPL
protein stability index: 0.774
//
chain-sequence: KDVGKVATRRSK
protein stability index: 0.696
//
chain-sequence: YQVTEEKLIMTQ
protein stability index: 0.674
//
chain-sequence: VGGIVGWFCRGR
protein stability index: 0.698
//
chain-sequence: YSPSCPRTSPLL
protein stability index: 0.726
//
chain-sequence: KKKKKKKNTKTK
protein stability index: 0.644
//
chain-sequence: LHLYPSLLLPGL
protein stability index: 0.742
//
chain-sequence: LFSSLLLPNALR
protein stability index: 0.69
//
chain-sequence: GSTSLILSMSPA
protein stability index: 0.693
//
chain-sequence: SLFFCIPIHSVF
protein stability index: 0.461
//
chain-sequence: RGFLHVRCRDTC
protein stability index: 0.705
//
chain-sequence: HHPLGSPPVPPP
protein stability index: 0.729
//
chain-sequence: GGGWSGRGVGDR
protein stability index: 0.727
//
chain-sequence: SPRRSLPPAGFT
protein stability index: 0.71
//
chain-sequence: LSSTIFHRSCVR
protein stability index: 0.759
//
chain-sequence: NGKGECSLESSS
protein stability index: 0.677
//
chain-sequence: RIFWMFFSQHIG
protein stability index: 0.197
//
chain-sequence: RRWATGGVIGGR
protein stability index: 0.677
//
chain-sequence: VRVYLSQNSRFG
protein stability index: 0.723
//
chain-sequence: PPLPPPSSPLFP
protein stability index: 0.714
//
chain-sequence: FRPLWLPSGSAC
protein stability index: 0.611
//
chain-sequence: PAPRARTPLDRI
protein stability index: 0.683
//
chain-sequence: GAGGARRLAVGQ
protein stability index: 0.655
//
chain-sequence: EKKTNEKNSYNL
protein stability index: 0.659
//
chain-sequence: LGGWWVWSWGRG
protein stability index: 0.66
//
chain-sequence: ASPPPEVCLSHR
protein stability index: 0.682
//
chain-sequence: RRSLSVYPRFRT
protein stability index: 0.714
//
chain-sequence: PPHAPLPPPLAL
protein stability index: 0.722
//
chain-sequence: FRRLCRPVWSAR
protein stability index: 0.675
//
chain-sequence: LPGTVELHSSRL
protein stability index: 0.755
//
chain-sequence: SAPLASRLCLFA
protein stability index: 0.644

---

protein stability index reference
# Tested on: Saccharomyces cerevisiae
# method-notes: protein stability index of tFT-peptide fusion (C-terminal peptide) (PSI (0-1 scale)); higher = more stable (slower turnover)
# details: genetic background: wild type; temperature: 30 C

chain-sequence: LFLSIRRFRCRL
tested-on: Saccharomyces cerevisiae
protein stability index: 0.58
//
chain-sequence: VGVGGRRYNVRG
tested-on: Saccharomyces cerevisiae
protein stability index: 0.66
//
chain-sequence: ALSGSFVSWLGG
tested-on: Saccharomyces cerevisiae
protein stability index: 0.689
//
chain-sequence: CGRFGRGVDLGN
tested-on: Saccharomyces cerevisiae
protein stability index: 0.687
//
chain-sequence: KKKTRIYKRQKR
tested-on: Saccharomyces cerevisiae
protein stability index: 0.655
//
chain-sequence: RNEDYQKKRKGK
tested-on: Saccharomyces cerevisiae
protein stability index: 0.701
//
chain-sequence: GLWSGWGMVGCV
tested-on: Saccharomyces cerevisiae
protein stability index: 0.737
//
chain-sequence: PQPPPPPPLSVS
tested-on: Saccharomyces cerevisiae
protein stability index: 0.673
//
chain-sequence: YGYMTNNCLLSI
tested-on: Saccharomyces cerevisiae
protein stability index: 0.649
//
chain-sequence: GDGGGMVEGLSR
tested-on: Saccharomyces cerevisiae
protein stability index: 0.669

---

# Test system: Saccharomyces cerevisiae
# method-notes: protein stability index of tFT-peptide fusion (C-terminal peptide) (PSI (0-1 scale)); higher = more stable (slower turnover)
# details: genetic background: wild type; temperature: 30 C
protein stability index reference

chain-sequence: GYLIWSMGNRRR [YFL051C C-terminal 12 aa]
protein stability index: 0.71
//
chain-sequence: MNGIPREAFVQF [MEX67 C-terminal 12 aa]
protein stability index: 0.701
//
chain-sequence: LLNDIKRRNMGR [MET28 C-terminal 12 aa]
protein stability index: 0.723
//
chain-sequence: SIDQFRGKLNSI [URA1 C-terminal 12 aa]
protein stability index: 0.688
//
chain-sequence: LSEASKLASKPL [COX15 C-terminal 12 aa]
protein stability index: 0.704
//
chain-sequence: LKLEQKIGELSK [CRN1 C-terminal 12 aa]
protein stability index: 0.718
//
chain-sequence: SRFDYLTRKNAL [CBK1 C-terminal 12 aa]
protein stability index: 0.71
//
chain-sequence: RTTGHNLKQDFN [BUD4 C-terminal 12 aa]
protein stability index: 0.653
//
chain-sequence: IKGWFVNGQVPR [PEX17 C-terminal 12 aa]
protein stability index: 0.674
//
chain-sequence: ETSITNDNESQQ [PPZ1 C-terminal 12 aa]
protein stability index: 0.701
//
chain-sequence: AATNNLFIFSAL [CDC55 C-terminal 12 aa]
protein stability index: 0.713
//
chain-sequence: SGAGARGSSAAA [LYS2 C-terminal 12 aa]
protein stability index: 0.676
//
chain-sequence: FDSEHFYSPVQT [PRP3 C-terminal 12 aa]
protein stability index: 0.71
//
chain-sequence: AEFFTKFDELVV [EHT1 C-terminal 12 aa]
protein stability index: 0.666
//
chain-sequence: CPHHNPDNQQFF [BIK1 C-terminal 12 aa]
protein stability index: 0.702
//
chain-sequence: LDNILADLELDV [YIL001W C-terminal 12 aa]
protein stability index: 0.684
//
chain-sequence: FTRRGWSSFFKQ [PCL9 C-terminal 12 aa]
protein stability index: 0.665
//
chain-sequence: SDELSRNFDSQG [VPS3 C-terminal 12 aa]
protein stability index: 0.726
//
chain-sequence: TEDKNKALESAQ [VPS60 C-terminal 12 aa]
protein stability index: 0.671
//
chain-sequence: IKARNMKIDRTQ [COG4 C-terminal 12 aa]
protein stability index: 0.695
//
chain-sequence: ANEMADELSRYL [IRC6 C-terminal 12 aa]
protein stability index: 0.734
//
chain-sequence: SAIADDDEEHKE [LHP1 C-terminal 12 aa]
protein stability index: 0.678
//
chain-sequence: YHLFYMKLQKKI [SPE2 C-terminal 12 aa]
protein stability index: 0.187
//
chain-sequence: LYWDPSWITRQL [SNF8 C-terminal 12 aa]
protein stability index: 0.621
//
chain-sequence: SFDVLAKVPNAA [RPA190 C-terminal 12 aa]
protein stability index: 0.655
//
chain-sequence: AHNFKVPETSKG [PAN2 C-terminal 12 aa]
protein stability index: 0.677
//
chain-sequence: IKSLFSLAKEAS [MSC7 C-terminal 12 aa]
protein stability index: 0.587
//
chain-sequence: IFQEAIDKTVEI [YML082W C-terminal 12 aa]
protein stability index: 0.706
//
chain-sequence: KLLQIHKSKQQD [TAH11 C-terminal 12 aa]
protein stability index: 0.706
//
chain-sequence: NTVELLNIPLTS [YLR345W C-terminal 12 aa]
protein stability index: 0.649
//
chain-sequence: WPRVASNSGVVV [RPL23A C-terminal 12 aa]
protein stability index: 0.679
//
chain-sequence: FTIYEKVLVMLA [CTP1 C-terminal 12 aa]
protein stability index: 0.202
//
chain-sequence: ANDWKTYENMKK [SIP18 C-terminal 12 aa]
protein stability index: 0.706
//
chain-sequence: NKDTMQLFRAYL [CIN2 C-terminal 12 aa]
protein stability index: 0.834
//
chain-sequence: KVGNDHMELKKE [TFG1 C-terminal 12 aa]
protein stability index: 0.671
//
chain-sequence: ISKVSNTRVCCT [YAL004W C-terminal 12 aa]
protein stability index: 0.654
//
chain-sequence: LVGGGIKKSGKK [TMA7 C-terminal 12 aa]
protein stability index: 0.736
//
chain-sequence: NDTIKLNQSIYS [ASK10 C-terminal 12 aa]
protein stability index: 0.705
//
chain-sequence: HVKDHQPGKPFI [YDR433W C-terminal 12 aa]
protein stability index: 0.708
//
chain-sequence: EIASCSSSIYSE [DSE3 C-terminal 12 aa]
protein stability index: 0.711
//
chain-sequence: QSLKISKKRRRK [ZIP1 C-terminal 12 aa]
protein stability index: 0.748
//
chain-sequence: RLNKLEAVLQTL [PML39 C-terminal 12 aa]
protein stability index: 0.72
//
chain-sequence: EVLERSVLLRKR [MDJ2 C-terminal 12 aa]
protein stability index: 0.688
//
chain-sequence: KFPLSVKKKIRI [YNR075C-A C-terminal 12 aa]
protein stability index: 0.697
//
chain-sequence: AEKRDALLKEDA [RPL19A C-terminal 12 aa]
protein stability index: 0.699
//
chain-sequence: PEMDKEKKKFYL [RPF1 C-terminal 12 aa]
protein stability index: 0.708
//
chain-sequence: ELLRLHNCHLPV [RMA1 C-terminal 12 aa]
protein stability index: 0.7
//
chain-sequence: IRLFRSARRWVG [ADE6 C-terminal 12 aa]
protein stability index: 0.66
//
chain-sequence: GETSSSSAVAEV [AQY1 C-terminal 12 aa]
protein stability index: 0.659
